assay: Intravenous pharmacokinetics in mice; assay type: in vivo, Swiss mice; conditions: Swiss, mouse, in vivo, iv, 8 mg/kg; read-out: AUC0-4 h
Experimental Endpoint: AUC(0-t) (ng·h/mL)
Express the result in ng·h/mL but write the number alone.

Challenge: Would you kindly share the measured AUC(0-t) for C[n+]1ccn(C[C@@]2(C)[C@H](C(=O)[O-])N3C(=O)C[C@H]3S2(=O)=O)n1 ?
Response given: 5370

###

biological target: Penicillinase enzyme; test: β-Lactamase assay (Centa substrate); assay type: biochemical; settings: FIG. 1
Experimental Endpoint: IC50 compared with Tazo

Observe how each entry below is paired with its result.
C[C@]1(Cn2cc[n+](CC(N)=O)n2)[C@H](C(=O)[O-])N2C(=O)C[C@H]2S1(=O)=O	comparatively lower
CC[n+]1ccn(C[C@@]2(C)[C@H](C(=O)[O-])N3C(=O)C[C@H]3S2(=O)=O)n1	three-fold lower
C[n+]1ccn(C[C@@]2(C)[C@H](C(=O)[O-])N3C(=O)C[C@H]3S2(=O)=O)n1	three-fold lower
C[C@]1(Cn2cc[n+](CC(=O)N3CCOCC3)n2)[C@H](C(=O)[O-])N2C(=O)C[C@H]2S1(=O)=O	comparatively lower
C=CC[n+]1ccn(C[C@@]2(C)[C@H](C(=O)[O-])N3C(=O)C[C@H]3S2(=O)=O)n1	comparatively lower

Let us examine a further case.
Challenge: Would you kindly share the measured IC50 compared with Tazo for CCC[n+]1ccn(C[C@@]2(C)[C@H](C(=O)[O-])N3C(=O)C[C@H]3S2(=O)=O)n1 ?
Response given: comparatively lower
